Assay: Pharmacokinetics of LW105-1-1 in mice
Assay type: in vivo
Conditions: mouse, plasma; male C57BL/6 mice, oral gavage 30 mg/kg, after dose standardization; read-out: F% (absolute bioavailability)
Assay Metric: bioavailability (%)
# number only, unit % dropped from output

Problem: So what's the measured bioavailability for this one? CS(=N)(=O)NCCNc1nonc1C(=NO)Nc1ccc(F)c(Br)c1 (racemic) [LW105-1-1]
Solution: 69.9

* * *

Experiment: Pharmacokinetics of LW105-1-1 in mice
Format: in vivo
Conditions: male, C57BL/6, mouse, plasma, iv, 3 mg/kg, male C57BL/6 mice, intravenous 3 mg/kg
Assay Metric: AUC(0-t) (ng·h/mL)
# number only, unit ng·h/mL dropped from output

Problem: So what's the measured AUC(0-t) for this one? CS(=N)(=O)NCCNc1nonc1C(=NO)Nc1ccc(F)c(Br)c1 (racemic)
Solution: 1430

Source of measurements: patent US11370766B2
